Record form. Attribute: deltaT. Fill in for each entry.
Species: Mus musculus
condition details: Swiss albino, 5 mg/kg
Description: Hypothermic effect in Swiss albino mouse assessed as change in body temperature at 5 mg/kg, ip measured after 30 mins
Provide the reading as a plain figure in °C.

Give a short answer stating reported deltaT for COc1cc(N)c(Cl)cc1C(=O)N[C@@H]1CC2CC[C@H](C1)N2CC1CCCO1 (single isomer, unassigned) . -0.1

Give a short answer stating reported deltaT for COc1cc(N)c(Cl)cc1C(=O)N[C@H]1CC2CC[C@H](C1)N2Cc1ccco1 (single isomer, unassigned) . 0

Give a short answer stating reported deltaT for O=C(N[C@H]1CC2CC[C@H](C1)N2Cc1ccco1)c1ccc2ccccc2c1 (single isomer, unassigned) . -0.2

Give a short answer stating reported deltaT for O=C(N[C@@H]1CC2CC[C@H](C1)N2Cc1ccccc1)c1ccc2ccccc2c1 (single isomer, unassigned) . -1.5
